Molecular target: human LAIR-1-CD3ζ chimeric receptor on NFAT-GFP reporter cells (human, UniProt P20963 31-164, limits assumed)
Sequence (P20963 other isoform, or with tags, fused parts or gaps mutant limits assumed): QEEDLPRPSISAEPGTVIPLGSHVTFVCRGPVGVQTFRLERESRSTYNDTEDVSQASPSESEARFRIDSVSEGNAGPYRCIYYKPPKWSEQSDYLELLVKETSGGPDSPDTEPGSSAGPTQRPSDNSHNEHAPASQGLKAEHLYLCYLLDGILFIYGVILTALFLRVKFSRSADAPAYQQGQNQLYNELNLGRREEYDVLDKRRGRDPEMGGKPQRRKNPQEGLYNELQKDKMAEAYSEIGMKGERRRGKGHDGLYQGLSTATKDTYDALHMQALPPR
Experiment: cell-based or functional assay
Quantity: IC50 (read off the curve): % GFP+ human LAIR-1 reporter cells on coated collagen 1

Example entries begin here.
anti-LAIR-1 antibody ch57D12 (antibody, V domains shown, The prefix 'ch' is not defined) VH: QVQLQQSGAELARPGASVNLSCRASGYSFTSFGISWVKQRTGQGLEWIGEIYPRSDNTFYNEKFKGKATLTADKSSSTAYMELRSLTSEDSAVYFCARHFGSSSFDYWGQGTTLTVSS VL: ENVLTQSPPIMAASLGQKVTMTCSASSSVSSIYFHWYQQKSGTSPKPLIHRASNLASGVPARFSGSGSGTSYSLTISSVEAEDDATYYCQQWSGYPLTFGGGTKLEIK | ~700 pM
anti-LAIR-1 antibody ch61H4 (antibody, V domains shown) VH: EVQLQQSGPEVLKPGASVKISCKASGYTFTDYYYMNWVKQSHGKSLEWIGYIYPNNGATSYNQKFKGKATLTVDKSSSTAYMELRSLTSEDSAVYYCARDGYSSNYYTMDYWGQGTSVTVSS VL: DVQMIQSPSSLSASLGDIVTMTCQASQGTSINLNWFQQKPGKAPKLLIYGASNLEDGVPSRFSGSRYGTDFTLTISSLEDEDMATYFCLQHTYLPYTFGGGTKLEIK | ~2000 pM

Okay, next one:
Query string: What IC50 (read off the curve): % GFP+ human LAIR-1 reporter cells on coated collagen 1 value was documented for this binder, anti-LAIR-1 antibody ch47A1 (antibody, V domains shown) VH: EVQLVESGGGLVQPKGSLKLSCAASGFTFNTYAIHWVRQAPGKGLEWVARIRSKSTNYATYYADSVKDRFTISRDDSQSMVFLQMNNLKTEDTAMYYCVRENWYYYALDYWGQGTSVTVSS VL: DIQMTQSPASLSASVGETVTITCRASGNIHNYLTWYQQKQGKSPQVLVYNAKTLEDGVPSRFSGSESGTQYSLKINSLQPEDFGSYYCQHFWSTPFTFGSGTKLEIK ?
Result string: ~100 pM
